# System: SK-MEL-5
# TEST_METHOD_NOTES: NCI tumour cell line growth inhibition, 48 h
The source made the active and inactive calls. Cut-off read from the data, not from the text of the source: active = GI50 up to about 1.1 µM and inactive = higher. Where a SMILES comes first, the peptide text is derived from it. The star is where a group is joined. Cbz = O=C(OCc1ccccc1)*; Boc = CC(C)(C)OC(=O)*
Give one outcome, nothing more. List: active, inactive

{"columns": ["MOLECULE", "QUALITATIVE_LABEL"],
 "data": [
  ["C=C[C@H]1CN2CCc3c([nH]c4c([C@@H]5CCCN5C)c(O)ccc34)[C@@H]2C[C@@H]1C[C@H]1c2[nH]c3ccccc3c2CCN1C", "inactive"],
  ["C=CC(=O)C#CC#CC/C=C\\CCCCCCC", "inactive"],
  ["COC(=O)[C@H](Cc1ccc(O)cc1)NC(=O)[C@H](Cc1ccc(O)cc1)NC(=O)OC(C)(C)C (Boc-Tyr-Tyr-OMe)", "inactive"]
]}

Incoming: Dear colleague, could you share the recorded outcome for COc1ccc(N(C)C(=O)N(C)c2ccc([N+](=O)[O-])cc2)cc1 when you have a moment?
Outgoing: inactive

Incoming: And what about the molecule CN(C)CCNc1ccc2nnn3c4ccccc4c(=O)c1c23 ?
Outgoing: inactive

Incoming: And what about the molecule CN1CCN(c2cc3[nH]c(-c4ccc(Cl)cc4)nc3cc2F)CC1 ?
Outgoing: inactive

Incoming: And what about the molecule CCOC(=O)C(CC(=O)OC)NC(=O)C(CC(=O)OC)NC(=O)C(CC(=O)OC)NC(=O)C(CC(=O)OC)NC(=O)OCc1ccccc1 (centres undefined) (Cbz-D(OMe)D(OMe)D(OMe)D(OMe)-OEt; configuration not given here) ?
Outgoing: inactive

Incoming: And what about the molecule COc1ccc(/N=N/C(=N/NC(=O)c2cc(Cl)ccc2C(=O)c2ccccc2)c2ccc(N(CCC#N)CCC#N)cc2C)cc1 ?
Outgoing: inactive

---

# Tested on: UO-31
# TEST_METHOD_NOTES: NCI tumour cell line growth inhibition, 48 h
Calls of active or inactive are those of the source. Rule as the data show it: active = GI50 up to about 1.1 µM and inactive = higher.
Give one outcome, nothing more. List: 1 = active, -1 = inactive

// known answers, use as guide
{"columns": ["MOLECULE", "QUALITATIVE_LABEL"],
 "data": [
  ["CN1CCN(C2=C(Cl)C3(OCCS3)C(F)(F)C2(F)F)CC1 (configuration not stated)", -1],
  ["CC(C(=O)NCCNC(=O)CCC(=O)N(C)O)C(=O)NCCNC(=O)CCC(=O)N(C)O", -1],
  ["N#Cc1nc(C2CCC(=O)O2)oc1N (configuration not stated)", -1],
  ["S=C(Cc1ccc2c(c1)Sc1ccccc1O2)N1CCOCC1", -1],
  ["COc1cc(-c2oc3c(OC)cc(OC)c(O)c3c(=O)c2OC)cc(OC)c1OC", -1],
  ["O=C(N[C@@H]1C=CCC[C@@H]1c1ccccc1)OCc1ccccc1", -1],
  ["C[C@]12CC[C@H](OC3CCCCO3)CC1=CC[C@@H]1C2CC[C@]2(C)/C(=N/OCCC#N)CCC12 (some centres not stated)", -1],
  ["CCC1=CCN(c2ccc(C)cc2)OC1c1ccc(OC)cc1 (configuration not stated)", -1]
]}

Incoming: Dear colleague, could you share the recorded outcome for CCOC(=O)C(NC(=O)NCc1ccc(F)cc1)C(F)(F)F (configuration not stated) when you have a moment?
Outgoing: -1

---

# Tested on: BT-549
# TEST_METHOD_NOTES: NCI tumour cell line growth inhibition, 48 h
Activity calls are given as the source filed them. Rule as the data show it: active = GI50 up to about 1.1 µM and inactive = higher.
Give one outcome, nothing more. List: true (1) (active), false (0) (inactive)

// known answers, use as guide
{"columns": ["COMPOUND", "QUALITATIVE_LABEL"],
 "data": [
  ["CN(C)CC1CCCC1=O (stereo unspecified)", "false (0)"],
  ["COC(=O)[C@@H](NS(=O)(=O)CC12CCC(CC1)C2(C)C)C(C)(C)C", "false (0)"]
]}

Incoming: Dear colleague, could you share the recorded outcome for Cc1cnc2nc(-c3ccc4ccccc4c3)cc(O)c2c1 when you have a moment?
Outgoing: false (0)

Incoming: And what about the compound Cc1cccc(C)c1NC(=S)NC=C1C(=O)c2ccccc2C1=O ?
Outgoing: false (0)

Incoming: And what about the compound NC(CO)Cc1c[nH]cn1 (stereo unspecified) ?
Outgoing: false (0)

Incoming: And what about the compound CN1CCN(c2cc3[nH]c(-c4ccc(Cl)cc4)nc3cc2F)CC1 ?
Outgoing: false (0)

Incoming: And what about the compound CC[C@H]1C=CCC[C@@]2(C[C@@H]3CC[C@@H]4[C@H](C(=O)OCCCCCCCCCCCCCCCC(=O)N(CCCN)CCCCN)[C@]5(CCC[C@@H](C)O5)NC(=[N+]34)N2)O1 ?
Outgoing: true (1)

Incoming: And what about the compound N#CCCCC[N+]12CN3CN(CN(C3)C1)C2 ?
Outgoing: false (0)

Incoming: And what about the compound Cc1ccc2nc3c(=O)[nH]c(=O)nc-3n(C)c2c1C ?
Outgoing: false (0)

---

# Tested on: HCT-116
# TEST_METHOD_NOTES: NCI tumour cell line growth inhibition, 48 h
Calls of active or inactive are those of the source. Rule as the data show it: active = GI50 up to about 1.1 µM and inactive = higher.
Please provide measured GI50 for the entries that follow.

Example entries and their recorded answers appear below.
{"columns": ["MOLECULE", "RESULT"],
 "data": [
  ["COc1ccc(/C=N/n2c(C)n[nH]c2=O)c(OC)c1", "> 100 µM (inactive)"],
  ["O=[N+]([O-])c1ccc2[nH]nc(OCc3ccccn3)c2c1", "> 100 µM (inactive)"]
]}

// each listed molecule needs a value for GI50
1. CC(C)Oc1cccc(N2C(n3ccnc3)=Nc3ccncc3S2(=O)=O)c1
2. CN(C)CCCNc1c2ccccc2[n+]([O-])c2ccccc12
3. CC(C)(Oc1ccccc1)C(=O)Sc1c(-c2ccccc2)c(=O)n(-c2ccccc2)c(=S)n1-c1ccccc1
4. CCOc1ccc(NC(=O)C(=O)CC(=O)c2c(C)[n+]([O-])c3ccccc3[n+]2[O-])cc1

Outgoing:
1: 13.6 µM (inactive); 2: 34 µM (inactive); 3: 50.1 µM (inactive); 4: > 100 µM (inactive)

// each listed molecule needs a value for GI50
1. N#C/C(=C\c1ccc(O)c(O)c1)C(=O)NC1CCC(CC2CCC(NC(=O)/C(C#N)=C/c3ccc(O)c(O)c3)CC2)CC1 (stereo not given)
2. CCCCCCc1cc2cc(C(=O)Nc3nc(C45CC6CC(CC(C6)C4)C5)cs3)c(=O)oc2cc1O
3. COc1cc(C)cc(C(=O)/C=C/c2ccccc2)c1O
4. CCOC(=O)/C(=C/c1ccc[nH]1)P(=O)(OCC)OCC

Outgoing:
0.233 µM (active)
3.56 µM (inactive)
17.7 µM (inactive)
> 100 µM (inactive)

---

# Test system: OVCAR-8
# TEST_METHOD_NOTES: NCI tumour cell line growth inhibition, 48 h
The source made the active and inactive calls. Cut-off read from the data, not from the text of the source: active = GI50 up to about 1.1 µM and inactive = higher.
Give one outcome, nothing more. List: active, inactive

// known answers, use as guide
{"columns": ["MOLECULE", "TARGET", "QUALITATIVE_LABEL"],
 "data": [
  ["Cc1ccccc1N1C(=O)C2C=CC(n3[nH]c(=O)n(Cc4ccccc4)c3=O)CC2C1=O (stereo not drawn)", "OVCAR-8", "inactive"],
  ["CCOC(=O)c1ccc(C(=O)n2ccnc2)[nH]1", "OVCAR-8", "inactive"]
]}

Incoming: Dear colleague, could you share the recorded outcome for O=C1NC(=S)NC(=O)C1C(c1ccccc1[N+](=O)[O-])C1C(=O)NC(=S)NC1=O.c1ccncc1 when you have a moment?
Outgoing: inactive

Incoming: And what about the molecule O=C(NNS(=O)(=O)c1ccccc1)c1cccnc1 ?
Outgoing: inactive

Incoming: And what about the molecule CCC1CCC2C3CC=C4CC(OC(C)=O)C(N)CC4(C)C3CCC12C (stereo not drawn) ?
Outgoing: inactive

Incoming: And what about the molecule CC[C@@]12C=CC(=S)N(CCSc3ccccc3)[C@@H]1c1c(n(S(=O)(=O)c3ccc(OC)cc3)c3ccccc13)CC2 ?
Outgoing: inactive

Incoming: And what about the molecule COc1ccc2c(c1)OCCC1=C2SCC2(C)CCN=C12 (stereo not drawn) ?
Outgoing: inactive

Incoming: And what about the molecule CC(C)=CCC[C@@H](C)C1=C(Nc2ccccc2F)C(=O)C(C)=C(O)C1=O ?
Outgoing: inactive

Incoming: And what about the molecule CCOC(=O)N/N=C(/N)c1cccc(Br)c1 ?
Outgoing: inactive

Incoming: And what about the molecule C1CN2N3CCCC23C1 (stereo not drawn) ?
Outgoing: inactive

Incoming: And what about the molecule O=S(=O)([N-]c1nc2ccccc2nc1-[n+]1ccccc1)c1ccccc1 ?
Outgoing: inactive

Incoming: And what about the molecule CCCCCCc1cc2cc(C(=O)Nc3nc(C45CC6CC(CC(C6)C4)C5)cs3)c(=O)oc2cc1O ?
Outgoing: inactive

Incoming: And what about the molecule Cn1c(=O)c2c(nc3n2CC(=O)N3CCCCl)n(C)c1=O ?
Outgoing: inactive

Incoming: And what about the molecule O=c1[nH]nc(-c2ccc([N+](=O)[O-])cc2)n1/N=C/c1ccc([N+](=O)[O-])cc1 ?
Outgoing: inactive

Incoming: And what about the molecule CN1CCN(c2cc3[nH]c(-c4ccc(Cl)cc4)nc3cc2F)CC1 ?
Outgoing: inactive

Incoming: And what about the molecule Cc1cc(-c2nc3ccccc3s2)ccc1NC(=O)[C@@H](N)CCCCN ?
Outgoing: inactive

Incoming: And what about the molecule O=C1NC2OCC(O)C(O1)C2O (stereo not drawn) ?
Outgoing: inactive

Incoming: And what about the molecule O=C(O)c1oc(C(=O)O)c(C(=O)O)c1C(=O)O ?
Outgoing: inactive
